test system: Plasmodium berghei; test: Screen against P. berghei liver stage (PbLuc), transformed with Luciferase, at 10uM; type: functional, HepG2; settings: tested at 10 uM
The whole screen tested about 69,000 compounds, of which about 8,600 (12%) showed an effect of 50% or more. Many of the other results were omitted from the sample, so strong results are more common in it than they were.
measured_property: INHIBITION (%)

compound="Cc1c[nH]c(CN2CCOC(c3ccc(Cl)c(Cl)c3)C2)c(C)c1=O (centres undefined)" units=% endpoint_value=19.8
compound=COc1ccc2[nH]cc(C3CCN(CCC(N)=O)CC3)c2c1 units=% endpoint_value=36.6
compound="CNC(=O)NC(=O)C(C)N1CCC(c2c[nH]c3ccc(OC)cc23)CC1 (centres undefined)" units=% endpoint_value=61.5
compound="Cc1csc(C2CCCCN2C(=O)c2cc(C3CC3)[nH]n2)n1 (centres undefined)" units=% endpoint_value=13.6

* * *

system: Plasmodium berghei; test: Screen against P. berghei liver stage (PbLuc), transformed with Luciferase, at 10uM; assay type: functional, HepG2; conditions: tested at 10 uM
In all, about 69,000 compounds went through this assay and about 8,600 (12%) showed an effect of 50% or more. Only a selection was taken, and strong results are over-represented in it overall.
measured_property: INHIBITION (%)

molecule="CCn1ccnc1CN1CCCC1Cn1cc(C)cn1 (stereo not drawn)" units=% endpoint_value=-53.5
molecule=Cc1noc(NS(=O)(=O)c2ccc(Cl)s2)c1C units=% endpoint_value=44.7
molecule=C=C/C=c1\c(=C/C)oc2c(NCc3ccccc3)nc(CC)nc12 units=% endpoint_value=22.5
molecule=Cc1cc(C(=O)N2CCC(O)(Cn3ccc4ccncc43)CC2)on1 units=% endpoint_value=12.8
molecule=CN(Cc1ccco1)[C@@H]1CN(C(=O)c2ccnnc2)C[C@@H]2CCCO[C@@H]21 units=% endpoint_value=18.5
molecule=C=C/C=c1\c(=C/C)oc2c(NCc3ccccc3)nc(C)nc12 units=% endpoint_value=68
molecule="Nc1nc2c(s1)C(c1c(F)cccc1Cl)CC(=O)N2 (stereo not drawn)" units=% endpoint_value=30
molecule=Cn1ccc(CN2CCC(CC(=O)NC3CCCC3)CC2)cc1=O units=% endpoint_value=27.2
molecule="CC(C(=O)Nc1ccc(Cl)cn1)n1ccc(C(F)(F)F)n1 (stereo not drawn)" units=% endpoint_value=42.4
molecule="c1ccc(Cc2nnc(CN3CCCC3Cn3cccn3)o2)cc1 (stereo not drawn)" units=% endpoint_value=24
molecule=CCN(Cc1ccc(C(C)=O)cc1)CC1CCOCC1 units=% endpoint_value=14.6
molecule=Cc1cc(S(=O)(=O)Nc2onc(C)c2C)c(C)s1 units=% endpoint_value=4.1
molecule=C=C(C)COc1cccc(CNCCc2c[nH]cn2)c1 units=% endpoint_value=29.1
molecule="Cc1ccc(C(=O)N2C[C@H]3CCCC(OCc4cccnc4)[C@H]3C2)cn1 (stereo partly drawn)" units=% endpoint_value=27.6
molecule="Cc1cnc(C(=O)N2CCCCC2c2nc(C)cs2)cn1 (stereo not drawn)" units=% endpoint_value=-16
molecule=C=C/C=c1\c(=C/C)oc2c(NCc3ccccc3)ncnc12 units=% endpoint_value=60.3
molecule=COc1cc(NC2CCN(C3CCS(=O)(=O)CC3)CC2)ncn1 units=% endpoint_value=-15
molecule=Cc1cccc(N2CCC3(CCN(Cc4ccccn4)CC3)CC2)n1 units=% endpoint_value=15.3

* * *

tested on: Plasmodium berghei; experiment: Screen against P. berghei liver stage (PbLuc), transformed with Luciferase, at 10uM; format: functional, HepG2; settings: tested at 10 uM
About 8,600 (12%) of roughly 69,000 compounds showed an effect of 50% or more. The sample holds strong results, similar compounds and a random draw of the others, so the mix is not that of the screen.
Below is a list of entries, each paired with its recorded INHIBITION value.
measured_property: INHIBITION (%)

compound="O=C(CN1CCS(=O)(=O)CC1)NC1CCOc2ccccc21 (stereo not given)" target_desc="Plasmodium berghei" units=% endpoint_value=-22.4
compound=Cc1ccc(CN2CC[C@@]3(O)CCN(S(=O)(=O)N(C)C)C[C@H]3C2)cc1C target_desc="Plasmodium berghei" units=% endpoint_value=-4.95
compound=Cc1nnc2n1CCN(C(=O)c1cn(-c3ccc(F)cc3)nn1)C2 target_desc="Plasmodium berghei" units=% endpoint_value=-6.39
compound=Cn1cnnc1S(=O)(=O)C1CCN(S(=O)(=O)c2ccccc2F)CC1 target_desc="Plasmodium berghei" units=% endpoint_value=15.7
compound=CN(c1nccc(-c2cnc3sc(Cl)cn3c2=O)n1)C1CCCCC1 target_desc="Plasmodium berghei" units=% endpoint_value=38.2
compound="COCC(C)(NC(=O)c1cc(Cl)c(-n2cccc2)cc1OC)C(N)=O (stereo not given)" target_desc="Plasmodium berghei" units=% endpoint_value=-35
compound=Cc1cc(OC(F)F)c(C(=O)N2CCN(C3CC3)CC2)s1 target_desc="Plasmodium berghei" units=% endpoint_value=-3.47
compound="CNC(=O)C1CCN(c2ncc3c(n2)CCN3c2ccccc2)C1 (stereo not given)" target_desc="Plasmodium berghei" units=% endpoint_value=-105
compound=Cc1ccc(-c2cc(CNC(=O)N3CCC(O)CC3)on2)cc1 target_desc="Plasmodium berghei" units=% endpoint_value=-25.8
compound="O=C(NC1CCN(c2cccc(OC(F)(F)F)c2)C1=O)C1CC1 (stereo not given)" target_desc="Plasmodium berghei" units=% endpoint_value=61.1
compound=Cc1ccc2cc(C(=O)N3CCC(Nc4cccnn4)CC3)[nH]c2c1 target_desc="Plasmodium berghei" units=% endpoint_value=21.6
compound=COCc1noc(CN2C[C@H](C3CC3)[C@@H](N(C)C)C2)n1 target_desc="Plasmodium berghei" units=% endpoint_value=17.1
compound=COCCN(Cc1sccc1C)C(=O)c1c(O)cccc1F target_desc="Plasmodium berghei" units=% endpoint_value=-15.6
compound=CNC(=O)NC(=O)CCSCc1cc(F)cc2cccnc12 target_desc="Plasmodium berghei" units=% endpoint_value=11.5
compound=Cc1ccc(S(=O)(=O)N2CCC(S(=O)(=O)c3nncn3C)CC2)cc1C target_desc="Plasmodium berghei" units=% endpoint_value=-0.554

* * *

tested on: Plasmodium berghei; experiment: Screen against P. berghei liver stage (PbLuc), transformed with Luciferase, at 10uM; format: functional, HepG2; conditions: tested at 10 uM
Among all 69,000 compounds or so, about 8,600 (12%) showed an effect of 50% or more. For the sample, strong results were picked, then their nearest neighbours and some compounds at random.
# thresholds on INHIBITION define classes: low-valued (below 10%), mid-valued (10% to below 50%), high-valued (50% or more)

molecule=CCc1cc(N(C)Cc2ncc[nH]2)nc(N2CCOCC2)n1 target_desc="Plasmodium berghei" class_assignment=mid-valued
molecule="O=S(=O)(NCC1OCCc2cn(Cc3ccccn3)nc21)C1CC1 (configuration not stated)" target_desc="Plasmodium berghei" class_assignment=mid-valued
molecule="CN(CC(=O)NCC1CCCO1)Cc1nc2c(s1)CCCC2 (configuration not stated)" target_desc="Plasmodium berghei" class_assignment=high-valued
molecule=CN1CC(C)(C)CN(C(=O)CCc2ccccc2)CC1=O target_desc="Plasmodium berghei" class_assignment=mid-valued
molecule=CCn1cc(CN2CCCN(C(=O)CCn3cc(C)cn3)CC2)cn1 target_desc="Plasmodium berghei" class_assignment=high-valued
molecule=Cc1cnn(CCC(=O)N2CCN(c3nc(C)cs3)CC2)c1 target_desc="Plasmodium berghei" class_assignment=high-valued
molecule="CNc1nc2c(s1)C(c1c(F)cccc1Cl)CC(=O)N2 (configuration not stated)" target_desc="Plasmodium berghei" class_assignment=low-valued
molecule=COCCN1CCC2(CC1)CCN(Cc1ccccn1)CC2 target_desc="Plasmodium berghei" class_assignment=low-valued
molecule=CCc1cc(N(C)Cc2nonc2C)nc(N2CCOCC2)n1 target_desc="Plasmodium berghei" class_assignment=mid-valued
molecule=CN1CCN(C(=O)c2ccc3c(c2)[nH]c(=O)n3C2CCCC2)CC1 target_desc="Plasmodium berghei" class_assignment=high-valued
molecule=O=C(c1ccc2c(c1)[nH]c(=O)n2C1CCCC1)N1CCC1 target_desc="Plasmodium berghei" class_assignment=mid-valued
molecule="CN(C)S(=O)(=O)c1ccc(=O)n(CC2CCCCO2)c1 (configuration not stated)" target_desc="Plasmodium berghei" class_assignment=low-valued

* * *

system: Plasmodium berghei; test: Screen against P. berghei liver stage (PbLuc), transformed with Luciferase, at 10uM; assay type: functional, HepG2; conditions: tested at 10 uM
The campaign covered roughly 69,000 compounds. About 8,600 (12%) showed an effect of 50% or more. The full list was thinned out, with strong results kept by preference.
Please use 1 whenever INHIBITION is not below 40%, and -1 whenever it is.

molecule="CN(Cc1ccccn1)C1CCCN(Cc2noc(C3CC3)n2)C1 (centres undefined)" class_assignment=-1
molecule=CCc1cnc(C)nc1NCc1cnc2c(c1)CCC2 class_assignment=1
molecule="CCN(C(=O)CCOC)C(c1ccc(Cl)cc1)c1ccccn1 (centres undefined)" class_assignment=1
molecule="COc1ccc(CC(=O)N2CCCC2Cn2cc(C)cn2)c(OC)c1 (centres undefined)" class_assignment=1
molecule="Cc1cncc(C2CCCN(C(=O)c3c[nH]c(=O)[nH]c3=O)C2)n1 (centres undefined)" class_assignment=-1
molecule=CNc1ncc(CN(C)C2CCN(C(C)C)CC2)cn1 class_assignment=-1
molecule=O=C(NCC1CC1)c1n[nH]c2c1CNCC2 class_assignment=-1
molecule=O=C1[C@@H]2CCN(C3CCOCC3)C[C@@H]2OCCN1Cc1cccnc1 class_assignment=-1
molecule="Cc1cc(CN2CCC(N(C)Cc3noc(C4CC4)n3)C2)no1 (centres undefined)" class_assignment=-1
molecule="CC(NC(=O)NCCCc1n[nH]c(N)c1C#N)c1cccs1 (centres undefined)" class_assignment=1
molecule=O=C(c1cc(=O)c(OCc2ccccc2F)co1)N1CCCC1 class_assignment=-1
molecule="CC(NC(=O)NCCNc1ccccn1)c1cccs1 (centres undefined)" class_assignment=-1
molecule="CCN(C(=O)CCCOC)C(c1ccc(Cl)cc1)c1ccccn1 (centres undefined)" class_assignment=-1
molecule=Cc1ncc(-c2ccncc2)c(C2CCN(C(=O)c3ccco3)CC2)n1 class_assignment=-1
molecule=Cc1noc(C)c1CN(C)c1ncnc2ccccc12 class_assignment=-1
molecule=CNc1ncc(CN(C)c2nc(C)c3ccc(S(C)(=O)=O)cc3n2)cn1 class_assignment=-1
molecule=Cc1ccc(S(=O)(=O)NC(=O)COc2cccc(C(N)=O)c2)s1 class_assignment=-1
molecule="Cc1cc(CN(C)C2CCCN(Cc3noc(C4CC4)n3)C2)no1 (centres undefined)" class_assignment=1
molecule=CNc1ncc(CN(C)c2ncnc3onc(C)c23)cn1 class_assignment=1

// data source = ChEMBL document CHEMBL4513216
